Values were extracted from patent US20150104459A1.

- SYSTEM: Hemagglutinin of influenza A/Solomon Islands/3/06 (H1N1) on whole virions (Influenza A virus A/Solomon …)
- PROTOCOL_TEXT: cell-based or functional assay
Measured % Neutralization, listed per entry for reference.
The figure you give is taken to be in %; do not add the unit.

These solved cases illustrate the format of a correct answer.
[
  {
    "BINDER": "TCN-531 (5091_H13) (antibody, V domains shown) VH: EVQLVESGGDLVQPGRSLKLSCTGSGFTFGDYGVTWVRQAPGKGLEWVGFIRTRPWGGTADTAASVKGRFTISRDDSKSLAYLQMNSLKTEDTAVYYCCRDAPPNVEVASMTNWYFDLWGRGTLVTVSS VL: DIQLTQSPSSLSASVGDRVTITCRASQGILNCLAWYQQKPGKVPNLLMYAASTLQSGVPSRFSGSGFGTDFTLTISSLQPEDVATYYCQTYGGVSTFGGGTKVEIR",
    "% Neutralization, %": 65
  },
  {
    "BINDER": "TCN-539 (5056_A08) (antibody, V domains shown) VH: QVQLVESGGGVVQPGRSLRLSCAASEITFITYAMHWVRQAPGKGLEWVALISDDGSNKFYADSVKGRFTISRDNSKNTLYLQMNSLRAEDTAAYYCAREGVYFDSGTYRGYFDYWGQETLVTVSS VL: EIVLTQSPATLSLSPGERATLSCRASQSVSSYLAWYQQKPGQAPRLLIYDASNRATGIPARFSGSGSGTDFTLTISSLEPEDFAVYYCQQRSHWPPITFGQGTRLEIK",
    "% Neutralization, %": 97
  }
]

Exercise: So what does the record say about % Neutralization for TCN-527 (5086_C06) (antibody, V domains shown) VH: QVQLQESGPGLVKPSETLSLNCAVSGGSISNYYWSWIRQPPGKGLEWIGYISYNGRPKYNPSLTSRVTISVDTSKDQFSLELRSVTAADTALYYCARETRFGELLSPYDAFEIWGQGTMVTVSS VL: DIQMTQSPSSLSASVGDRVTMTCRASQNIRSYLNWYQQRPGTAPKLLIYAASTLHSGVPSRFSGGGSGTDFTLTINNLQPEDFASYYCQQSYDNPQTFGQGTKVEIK ?
Key: 12
